Target: T1, human GIP receptor (human, UniProt P48546 22-466)
T1 construct: whole, on cells; Used as crude membranes of stably transfected CHO cells; also called hGIPR
T1 sequence (looked up): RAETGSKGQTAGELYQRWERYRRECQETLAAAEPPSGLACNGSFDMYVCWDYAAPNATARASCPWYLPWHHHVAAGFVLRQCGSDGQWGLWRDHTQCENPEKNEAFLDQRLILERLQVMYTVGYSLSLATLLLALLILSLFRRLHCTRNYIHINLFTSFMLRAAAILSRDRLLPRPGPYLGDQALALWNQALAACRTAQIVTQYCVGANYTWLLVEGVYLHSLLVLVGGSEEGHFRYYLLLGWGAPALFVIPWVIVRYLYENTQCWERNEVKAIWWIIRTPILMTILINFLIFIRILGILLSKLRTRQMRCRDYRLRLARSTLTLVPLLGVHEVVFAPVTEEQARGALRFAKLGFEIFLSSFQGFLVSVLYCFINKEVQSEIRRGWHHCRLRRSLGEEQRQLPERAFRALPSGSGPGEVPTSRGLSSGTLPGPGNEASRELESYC
Assay: SPA, [125I]-GIP displacement, hGIPR membranes

binder | Ki / pM
YXEGTXTSDYSIXLDEKAQXEFISYLIEGGPSSGAPPPS (Aib2; αMeF(2F)6; αMeL13; K17((2-[2-(2-Amino-ethoxy)-ethoxy]-acetyl)2-(γ-Glu)-CO-(CH2)18-CO2H); Aib20; C-terminal NH2) [Example 150] | 64.9
YXEGTXTSDLSILLDKKAQXAFIEYLIEGGPSSGAPPPS (Aib2; αMeF6; K17((2-[2-(2-Amino-ethoxy)-ethoxy]-acetyl)2-(γ-Glu)-CO-(CH2)18-CO2H); Aib20; C-terminal NH2) [Example 129] | 27.8
YXEGTXTSDXSIXLDEKAQXEFIEYLIEGGPSSGAPPPS (Aib2; αMeF(2F)6; 4Pal10; αMeL13; K17((2-[2-(2-Amino-ethoxy)-ethoxy]-acetyl)2-(γ-Glu)-CO-(CH2)18-CO2H); Aib20; C-terminal NH2) [Example 158] | 114
HXEGTFTSDYSIXLDKKAQXAFIEYLIEGGPSSGAPPPS (Aib2; αMeL13; K17((2-[2-(2-Amino-ethoxy)-ethoxy]-acetyl)2-(γ-Glu)-CO-(CH2)18-CO2H); Aib20; C-terminal NH2) [Example 53] | 188
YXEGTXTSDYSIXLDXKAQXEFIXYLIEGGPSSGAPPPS (Aib2; αMeF(2F)6; αMeL13; Orn16; K17((2-[2-(2-Amino-ethoxy)-ethoxy]-acetyl)2-(γ-Glu)-CO-(CH2)18-CO2H); Aib20; D-Glu24; C-terminal NH2) [Example 3] | 45.8
YXXGTFTSDYSILLDKKAQXAFIEYLIEGGPSSGAPPPS (Aib2; γ-Glu3; K17((2-[2-(2-Amino-ethoxy)-ethoxy]-acetyl)2-(γ-Glu)-CO-(CH2)18-CO2H); Aib20; C-terminal NH2) [Example 91] | 1800
YXEGTXTSDXSIXLDEKAQXTFIXYLIEGGPSSGAPPPS (Aib2; αMeF(2F)6; Aib10; αMeL13; K17((2-[2-(2-Amino-ethoxy)-ethoxy]-acetyl)2-(γ-Glu)-CO-(CH2)18-CO2H); Aib20; D-Glu24; C-terminal NH2) [Example 160] | 5980
YXEGTFTSDYSIXLDEKAQXAFIEYLIEGGPSSGAPPPS (Aib2; αMeL13; K17((2-[2-(2-Amino-ethoxy)-ethoxy]-acetyl)2-(γ-Glu)-CO-(CH2)18-CO2H); Aib20; C-terminal NH2) [Example 59] | 136
YXEGTFTSDYXILLDKKAQXAFIEYLIEGGPSSGAPPPS (Aib2; αMeS11; K17((2-[2-(2-Amino-ethoxy)-ethoxy]-acetyl)2-(γ-Glu)-CO-(CH2)18-CO2H); Aib20; C-terminal NH2) [Example 68] | 24.3
YXEGTXTSDYSIXLDEKAQXAFIEYLIEGG (Aib2; αMeF6; αMeL13; K17((2-[2-(2-Amino-ethoxy)-ethoxy]-acetyl)2-(γ-Glu)-CO-(CH2)18-CO2H); Aib20; C-terminal NH2) [Example 100] | 115
YXEGTFTSDYSIXLDEKAQXAFIEYLIEGG (Aib2; αMeL13; K17((2-[2-(2-Amino-ethoxy)-ethoxy]-acetyl)2-(γ-Glu)-CO-(CH2)18-CO2H); Aib20; C-terminal NH2) [Example 63] | 141
YXEGTXTSDYSIXLDKKAQXDFIEYLIEGGPSSGAPPPS (Aib2; αMeF6; αMeL13; K17((2-[2-(2-Amino-ethoxy)-ethoxy]-acetyl)2-(γ-Glu)-CO-(CH2)18-CO2H); Aib20; C-terminal NH2) [Example 140] | 47.4
YXEGTXTSDYSIXLDKKAQHXFIEYLIEGGPSSGAPPPS (Aib2; αMeF6; αMeL13; K17((2-[2-(2-Amino-ethoxy)-ethoxy]-acetyl)2-(γ-Glu)-CO-(CH2)18-CO2H); Aib21; C-terminal NH2) [Example 144] | 34.1
